- TEST_TARGET: TaqHH (Thermus aquaticus, UniProt P19821 1-832, E742H;A743H)
- Sequence (P19821 whole entry E742H/A743H): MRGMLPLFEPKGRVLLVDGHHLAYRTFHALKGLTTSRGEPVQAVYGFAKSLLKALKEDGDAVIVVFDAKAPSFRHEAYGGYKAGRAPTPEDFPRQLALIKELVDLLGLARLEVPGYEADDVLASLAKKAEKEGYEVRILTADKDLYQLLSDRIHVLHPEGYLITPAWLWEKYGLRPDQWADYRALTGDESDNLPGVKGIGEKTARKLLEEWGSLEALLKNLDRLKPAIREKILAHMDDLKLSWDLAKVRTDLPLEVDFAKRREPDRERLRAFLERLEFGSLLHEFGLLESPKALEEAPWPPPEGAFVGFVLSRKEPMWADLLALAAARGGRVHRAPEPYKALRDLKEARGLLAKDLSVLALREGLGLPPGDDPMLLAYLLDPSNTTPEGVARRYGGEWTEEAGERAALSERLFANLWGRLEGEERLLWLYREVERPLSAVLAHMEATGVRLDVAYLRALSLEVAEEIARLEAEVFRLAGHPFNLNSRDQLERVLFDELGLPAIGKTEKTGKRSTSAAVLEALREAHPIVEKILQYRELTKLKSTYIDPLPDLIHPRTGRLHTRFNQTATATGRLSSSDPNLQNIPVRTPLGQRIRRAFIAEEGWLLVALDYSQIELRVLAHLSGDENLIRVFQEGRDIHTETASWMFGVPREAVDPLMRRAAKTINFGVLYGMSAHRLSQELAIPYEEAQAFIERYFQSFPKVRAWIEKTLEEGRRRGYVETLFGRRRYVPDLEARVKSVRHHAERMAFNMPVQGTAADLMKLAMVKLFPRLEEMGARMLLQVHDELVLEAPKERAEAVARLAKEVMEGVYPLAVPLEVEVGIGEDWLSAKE
- ASSAY_NOTES: EMSA; 5 mM Mg2+; apparent Kd; EMSA: 3 nM DNA, 20 mM Tris-HCl pH 8.8, 10 mM NaCl, 5 mM MgCl2, 14 mM 2-mercaptoethanol, 0.1 mg/ml BSA, 5% glycerol, 40 C, 5 min; 1% agarose gel
- APPLIED_CONDITIONS: protein: recombinant; label: 32P on 27mer; primer-template; 27 bp duplex, 5' overhang 22 nt on the 49mer template
MEASUREMENT_NAME: Kd (nM)
# value in nM; strip the unit string

Req: Query: Kd; subject: primed DNA (27mer/49mer) (dsDNA) DNA 1: AGCTATGACCATGATTACGAATTGCTT DNA 2: AGCTACCATGCCTGCACGAATTAAGCAATTCGTAATCATGGTCATAGCT
Resp: 6

Where do the numbers come from? From paper PMC4153296.
